System: A375 human melanoma cells
Assay: MTX cytotoxicity screening, A375
Type: cell-based
Details: A-375

MOLECULE: CN(Cc1cnc2nc(N)nc(N)c2n1)c1ccc(C(=O)N[C@@H](CCC(=O)O)C(=O)O)cc1 [MTX, methotrexate]
READING UNIT: nM
EC50: 33.7

====

Tested on: MCF-7 human breast adenocarcinoma cells
Assay: Cytotoxicity (MTT growth inhibition) in MTX-sensitive MCF-7 cells
Assay type: cell-based
Conditions: MCF7, MCF-7, 5 × 10^3 cells per well, 6 days at 37°C, twice in triplicate (Figure 6: mean of six experiments ± SD)
pEC50: −log10 of the molar value.

COMPOUND: CN(Cc1cnc2nc(N)nc(N)c2n1)c1ccc(C(=O)N[C@@H](CCC(=O)O)C(=O)O)cc1 [MTX, methotrexate]
TESTED SYSTEM: MCF-7 human breast adenocarcinoma cells
pEC50: 7.59
